test system: Escherichia coli TOP10; assay: shrunken log2 fold change of peptide-encoding DNA abundance (4.5 h post-induction vs induction); higher = less antimicrobial activity (less host growth inhibition); conditions: time post-induction: 4.5 h; library: site-saturation at positions 5, 18, 19, 20;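 further: peptides expressed intracellularly from a pBAD plasmid library in pooled LB shake-flask culture, induced with 0.3% L-arabinose, DNA abundance read by NGS, three biological replicates, DESeq2 with apeglm shrinkage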
Would you mind labelling by shrunken log2 fold change? At or over -0.03 is fulfilled, under is not fulfilled.

Observe how each entry below is paired with its result.
| primary_sequence | group_label |
| --- | --- |
| RRIRIRPPRLPRPRPRPTPNPRP | fulfilled |
| RRIRCRPPRLPRPRPRPFRHPRP | not fulfilled |
| RRIRGRPPRLPRPRPRPQAWPRP | fulfilled |
| RRIRWRPPRLPRPRPRPDCLPRP | fulfilled |
| RRIRFRPPRLPRPRPRPLTVPRP | not fulfilled |
| RRIRYRPPRLPRPRPRPPYMPRP | not fulfilled |
| RRIRCRPPRLPRPRPRPDFTPRP | not fulfilled |
| RRIRVRPPRLPRPRPRPEDLPRP | fulfilled |

Next:
I'd appreciate it if you could say whether `RRIRHRPPRLPRPRPRPFAWPRP` has shrunken log2 fold change at least equal to -0.03. not fulfilled
